- Species: Homo sapiens
- test description: Selectivity ratio of IC50 for human N-terminal His-tagged JAK2 catalytic domain (828 to 1132 residues) to IC50 for human N-terminal His-tagged JAK1 catalytic domain (837 to 1142 residues)
property measured: Ratio IC50

Illustrative cases are given below, each with its answer.
{"compound": "CO[C@@H]1CN(C(=O)c2ccnc(C(F)(F)F)c2F)CC[C@@H]1N1CC(CC#N)(n2cc(-c3ncnc4[nH]ccc34)cn2)C1 (relative stereo)", "measured value": 59.2}
{"compound": "N#CCC1(n2cc(-c3ncnc4[nH]ccc34)cn2)CN(C2CCN(C(=O)OCc3cc(F)cc(F)c3)CC2)C1", "measured value": "7.1 to 24.4"}
{"compound": "N#CCC1(n2cc(-c3ccnc4[nH]ccc34)cn2)CN(C2CCN(C(=O)c3ccnc(C(F)(F)F)c3F)CC2)C1", "measured value": 21.4}

Lookup: Quick one: Ratio IC50 for N#CCC1(n2cc(-c3ncnc4[nH]ccc34)cn2)CN(C2CCN(C(=O)Nc3cnccc3C(F)(F)F)CC2)C1 ?
Found: 10.4 to 20.3

Just for reference, ChEMBL document CHEMBL3879909 is where these values come from.
